measurement.notes: Growth inhibition of MDCK2 cells co-expressing MRP1 (unknown origin) incubated for 72 hrs by MTT assay
Type: cell-based, Canis lupus familiaris, MDCK-II
cond: dog
measurement.kind: GI50 at 72 h (µM)

CC1CCc2c(sc3nc(-c4cccnc4)nc(N4CCN(C(C(N)=O)c5ccccc5)CC4)c23)C1 (stereo unspecified) | 42.4

---

assayed.target: Multidrug resistance-associated protein 1 (Homo sapiens)
measurement.notes: Inhibition of MRP1 in human COR-L23/R cells assessed reduction in tritiated daunomycin efflux incubated for 2 hrs by radioactivity-based assay
Format: cell-based
pIC50: −log10 of the molar value.
measurement.kind: pIC50

CCOC(=O)Cn1c2cccc(C(N)=O)c2c2ncnc(N3CCN(CCc4ccc(F)c(F)c4)CC3)c21 | 6.91

---

// reported pIC50 for each item listed
assayed.target: Multidrug resistance-associated protein 1 (Homo sapiens, UniProt P33527)
Sequence (P33527 whole entry): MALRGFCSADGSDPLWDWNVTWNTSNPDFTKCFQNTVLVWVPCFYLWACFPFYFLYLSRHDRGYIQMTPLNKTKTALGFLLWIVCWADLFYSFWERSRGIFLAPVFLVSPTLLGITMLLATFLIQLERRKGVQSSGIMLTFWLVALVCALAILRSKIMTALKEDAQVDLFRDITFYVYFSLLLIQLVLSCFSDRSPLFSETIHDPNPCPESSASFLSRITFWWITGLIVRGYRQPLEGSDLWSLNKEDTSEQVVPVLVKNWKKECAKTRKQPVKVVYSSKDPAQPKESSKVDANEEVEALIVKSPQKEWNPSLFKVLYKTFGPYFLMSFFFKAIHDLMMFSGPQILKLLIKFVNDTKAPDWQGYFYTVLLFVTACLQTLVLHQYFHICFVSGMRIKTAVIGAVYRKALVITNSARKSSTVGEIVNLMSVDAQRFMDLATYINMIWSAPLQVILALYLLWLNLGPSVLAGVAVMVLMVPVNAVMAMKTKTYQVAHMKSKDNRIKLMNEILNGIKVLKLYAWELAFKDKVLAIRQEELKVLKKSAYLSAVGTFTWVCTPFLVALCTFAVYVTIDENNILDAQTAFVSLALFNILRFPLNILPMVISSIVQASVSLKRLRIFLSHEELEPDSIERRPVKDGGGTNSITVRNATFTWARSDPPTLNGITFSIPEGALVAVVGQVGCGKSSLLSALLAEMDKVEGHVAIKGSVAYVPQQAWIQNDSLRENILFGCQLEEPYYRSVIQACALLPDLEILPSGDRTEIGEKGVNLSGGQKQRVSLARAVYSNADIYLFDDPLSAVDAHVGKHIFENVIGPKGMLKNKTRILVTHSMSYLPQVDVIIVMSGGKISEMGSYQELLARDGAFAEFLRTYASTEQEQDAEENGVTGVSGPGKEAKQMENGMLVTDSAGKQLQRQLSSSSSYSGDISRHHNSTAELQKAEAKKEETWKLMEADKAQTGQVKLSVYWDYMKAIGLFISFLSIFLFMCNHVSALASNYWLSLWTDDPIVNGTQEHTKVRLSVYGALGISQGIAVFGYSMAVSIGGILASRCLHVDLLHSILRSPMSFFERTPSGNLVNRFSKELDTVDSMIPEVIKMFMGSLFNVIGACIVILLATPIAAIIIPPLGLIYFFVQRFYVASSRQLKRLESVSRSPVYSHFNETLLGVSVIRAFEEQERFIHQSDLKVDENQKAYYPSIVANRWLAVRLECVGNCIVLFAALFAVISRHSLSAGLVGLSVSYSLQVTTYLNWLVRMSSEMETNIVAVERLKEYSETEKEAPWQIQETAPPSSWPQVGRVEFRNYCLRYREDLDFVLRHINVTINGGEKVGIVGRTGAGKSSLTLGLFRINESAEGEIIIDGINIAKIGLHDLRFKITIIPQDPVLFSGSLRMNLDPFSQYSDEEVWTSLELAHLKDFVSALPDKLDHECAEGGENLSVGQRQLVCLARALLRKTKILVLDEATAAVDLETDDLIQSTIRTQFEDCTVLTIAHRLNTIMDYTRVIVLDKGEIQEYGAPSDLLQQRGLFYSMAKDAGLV
measurement.notes: Inhibition of ABCC1 in human H69AR cells preincubated for 30 mins followed by calcein-AM addition measured at 60 secs time interval by fluorescence assay
Assay type: cell-based
pIC50: −log10 of the molar value.
measurement.kind: pIC50

C[C@@]1(C(=O)Nc2ccc(F)nc2)CCCN1c1nc(Nc2cc(C3CC3)n[nH]2)c2cccn2n1 | 4.44
CC1CCc2c(sc3nc(-c4cccnc4)nc(N4CCN(C(C(N)=O)c5ccccc5)CC4)c23)C1 (centres undefined) | 5.30
O=C(c1cc(-c2cccnc2)nc2ccccc12)N1CCN(Cc2cccs2)CC1 | 4.41
Cc1nc2cc(NC(=O)C3CCCN(c4cc(-n5cccn5)ncn4)C3)ccc2s1 (centres undefined) | 4.64

---

System: ABCC1 (MRP1)
measurement.notes: Therapeutic index, ratio of GI50 for human H69AR cells to IC50 for ABCC1 in human H69AR cells
Assay type: toxicity, cell-based
cond: read-out: TI
measurement.kind: selectivity ratio

CC1CCc2c(sc3nc(-c4cccnc4)nc(N4CCN(C(C(N)=O)c5ccccc5)CC4)c23)C1 (stereo unspecified) | 11.3

---

assayed.target: UniProtKB P08183
measurement.notes: Inhibition of ABCB1 in human A2780/ADR cells preincubated for 30 mins followed by calcein AM addition and measured at 60 secs time interval by fluorescence assay
compounds and their reported IC50
measurement.kind: IC50

Cc1ccccc1-n1c(SCC(=O)N2CCN(Cc3ccccc3)CC2)nnc1-c1cccnc1 | 15.6 µM
Cc1nc2cc(NC(=O)C3CCCN(c4cc(-n5cccn5)ncn4)C3)ccc2s1 (stereo not given) | 4.83 µM
CCCc1cc(N2CCN(CCOc3cccc4ccccc34)CC2)n2nc3nc(C)cc(C)c3c2n1 | 14.5 µM
C[C@@]1(C(=O)Nc2ccc(F)nc2)CCCN1c1nc(Nc2cc(C3CC3)n[nH]2)c2cccn2n1 | 17.7 µM
O=C(CSc1nnc(-c2ccc(F)cc2)o1)N1CCN(Cc2ccc3c(c2)CCO3)CC1 | 31 µM
O=C(c1cc(-c2cccnc2)nc2ccccc12)N1CCN(Cc2cccs2)CC1 | 27.8 µM
Cc1cc(C)c2c(n1)sc1c(N3CCN(Cc4ccccc4Cl)CC3)ncnc12 | 2.81 µM
Fc1ccccc1N1CCN(Cc2csc(-c3ccc4c(c3)OCO4)n2)CC1 | 15.4 µM
Cc1ccccc1-n1nnnc1SCC(=O)N1CCN(Cc2ccccc2)CC1 | 26.4 µM
CC1CCc2c(sc3nc(-c4cccnc4)nc(N4CCN(C(C(N)=O)c5ccccc5)CC4)c23)C1 (stereo not given) | 1.73 µM

---

measurement.notes: Growth inhibition of MDCK2 cells co-expressing MDR1 (unknown origin) incubated for 72 hrs by MTT assay
Assay type: ADME, cell-based, Canis lupus familiaris, MDCK-II
cond: dog
measurement.kind: GI50 at 72 h (µM)

CC1CCc2c(sc3nc(-c4cccnc4)nc(N4CCN(C(C(N)=O)c5ccccc5)CC4)c23)C1 (stereo unspecified) | 25

---

assayed.target: ABCB1 (P-gp) (Homo sapiens)
Sequence (P08183 whole entry): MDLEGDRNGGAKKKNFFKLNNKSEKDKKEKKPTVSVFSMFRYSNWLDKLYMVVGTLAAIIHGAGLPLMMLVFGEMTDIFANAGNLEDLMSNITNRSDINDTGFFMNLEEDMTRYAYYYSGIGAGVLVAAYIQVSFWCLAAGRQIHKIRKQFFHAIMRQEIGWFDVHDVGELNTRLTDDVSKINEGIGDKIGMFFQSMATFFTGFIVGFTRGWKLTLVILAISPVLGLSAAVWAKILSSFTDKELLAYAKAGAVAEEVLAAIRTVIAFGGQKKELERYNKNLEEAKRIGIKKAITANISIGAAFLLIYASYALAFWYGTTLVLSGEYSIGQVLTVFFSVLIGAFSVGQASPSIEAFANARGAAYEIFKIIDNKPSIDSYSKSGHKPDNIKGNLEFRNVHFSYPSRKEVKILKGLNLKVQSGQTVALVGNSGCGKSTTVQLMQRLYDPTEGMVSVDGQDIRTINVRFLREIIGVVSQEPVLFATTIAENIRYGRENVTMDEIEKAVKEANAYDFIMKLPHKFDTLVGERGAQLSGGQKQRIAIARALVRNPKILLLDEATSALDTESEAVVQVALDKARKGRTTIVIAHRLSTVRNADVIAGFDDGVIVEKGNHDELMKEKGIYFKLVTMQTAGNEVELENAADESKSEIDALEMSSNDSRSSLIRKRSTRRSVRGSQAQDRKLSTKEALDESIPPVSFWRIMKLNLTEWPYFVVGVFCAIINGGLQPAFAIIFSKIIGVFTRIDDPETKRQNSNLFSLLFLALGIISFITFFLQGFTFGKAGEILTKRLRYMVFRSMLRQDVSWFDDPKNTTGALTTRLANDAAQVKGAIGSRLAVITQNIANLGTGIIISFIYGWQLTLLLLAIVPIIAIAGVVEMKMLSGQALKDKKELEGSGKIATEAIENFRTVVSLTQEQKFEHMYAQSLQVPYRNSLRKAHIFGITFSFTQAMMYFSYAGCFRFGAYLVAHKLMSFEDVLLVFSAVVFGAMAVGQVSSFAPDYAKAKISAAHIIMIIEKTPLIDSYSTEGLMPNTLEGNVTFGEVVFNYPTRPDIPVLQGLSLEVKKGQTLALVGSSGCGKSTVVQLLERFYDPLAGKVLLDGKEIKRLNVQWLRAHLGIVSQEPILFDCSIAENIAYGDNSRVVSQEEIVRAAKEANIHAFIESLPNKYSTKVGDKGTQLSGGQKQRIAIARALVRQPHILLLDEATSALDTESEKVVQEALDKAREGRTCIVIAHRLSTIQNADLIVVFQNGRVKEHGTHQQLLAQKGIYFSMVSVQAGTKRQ
measurement.notes: Inhibition of ABCB1 in human A2780/ADR cells at 10 uM preincubated for 30 mins followed by calcein AM addition and measured at 60 secs time interval by fluorescence assay relative to cyclosporine A
Type: cell-based
cond: probe calcein AM
Entries annotated with measured inhibition at 1 min, 10 µM
measurement.kind: inhibition at 1 min, 10 µM

Cc1ccccc1-n1c(SCC(=O)N2CCN(Cc3ccccc3)CC2)nnc1-c1cccnc1 | ≥ 20%
CCCc1cc(N2CCN(CCOc3cccc4ccccc34)CC2)n2nc3nc(C)cc(C)c3c2n1 | ≥ 20%
Cc1ccccc1-n1nnnc1SCC(=O)N1CCN(Cc2ccccc2)CC1 | ≥ 20%
Cc1cc(C)c2c(n1)sc1c(N3CCN(Cc4ccccc4Cl)CC3)ncnc12 | ≥ 20%
Cc1nc2cc(NC(=O)C3CCCN(c4cc(-n5cccn5)ncn4)C3)ccc2s1 (stereo not given) | ≥ 20%
C[C@@]1(C(=O)Nc2ccc(F)nc2)CCCN1c1nc(Nc2cc(C3CC3)n[nH]2)c2cccn2n1 [BMS-754807] | ≥ 20%
O=C(CSc1nnc(-c2ccc(F)cc2)o1)N1CCN(Cc2ccc3c(c2)CCO3)CC1 | ≥ 20%
Fc1ccccc1N1CCN(Cc2csc(-c3ccc4c(c3)OCO4)n2)CC1 | ≥ 20%
O=C(c1cc(-c2cccnc2)nc2ccccc12)N1CCN(Cc2cccs2)CC1 | ≥ 20%
CC1CCc2c(sc3nc(-c4cccnc4)nc(N4CCN(C(C(N)=O)c5ccccc5)CC4)c23)C1 (stereo not given) | ≥ 20%

---

measurement.notes: Growth inhibition of human MCF7 cells incubated for 72 hrs by MTT assay
Type: cell-based
measurement.kind: GI50 at 72 h (µM)

CC1CCc2c(sc3nc(-c4cccnc4)nc(N4CCN(C(C(N)=O)c5ccccc5)CC4)c23)C1 (stereo unspecified) | 57.8

---

assayed.target: Broad substrate specificity ATP-binding cassette transporter ABCG2 (Homo sapiens, UniProt Q9UNQ0)
Sequence (Q9UNQ0 whole entry): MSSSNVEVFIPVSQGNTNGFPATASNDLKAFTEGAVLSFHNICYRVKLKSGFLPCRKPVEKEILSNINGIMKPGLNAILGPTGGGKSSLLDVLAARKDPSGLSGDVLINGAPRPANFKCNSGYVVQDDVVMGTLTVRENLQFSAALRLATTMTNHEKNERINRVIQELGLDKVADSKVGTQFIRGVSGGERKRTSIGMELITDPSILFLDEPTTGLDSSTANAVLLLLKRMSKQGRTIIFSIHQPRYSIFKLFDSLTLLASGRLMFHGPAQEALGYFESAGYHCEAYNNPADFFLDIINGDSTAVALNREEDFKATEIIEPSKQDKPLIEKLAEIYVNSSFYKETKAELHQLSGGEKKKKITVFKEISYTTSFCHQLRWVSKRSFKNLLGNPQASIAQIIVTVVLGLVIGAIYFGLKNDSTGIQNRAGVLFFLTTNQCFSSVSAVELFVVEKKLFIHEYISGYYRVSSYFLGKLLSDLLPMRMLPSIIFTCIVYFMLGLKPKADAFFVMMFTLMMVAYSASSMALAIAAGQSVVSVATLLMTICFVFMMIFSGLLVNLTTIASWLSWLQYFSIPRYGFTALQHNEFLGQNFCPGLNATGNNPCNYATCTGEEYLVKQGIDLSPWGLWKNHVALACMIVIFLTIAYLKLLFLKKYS
measurement.notes: Inhibition of ABCG2 (unknown origin) expressed in MDCK2 cells co-expressing BCRP (unknown origin) assessed as effect on pheophorbide A accumulation pre-incubated for 20 mins followed by pheophorbide A addition and measured after 120 mins by flow cytometric analysis
Type: cell-based
measurement.kind: IC50 (µM)

Fc1ccccc1N1CCN(Cc2csc(-c3ccc4c(c3)OCO4)n2)CC1 | 11.2
Cc1nc2cc(NC(=O)C3CCCN(c4cc(-n5cccn5)ncn4)C3)ccc2s1 (stereo not given) | 1.39
CCCc1cc(N2CCN(CCOc3cccc4ccccc34)CC2)n2nc3nc(C)cc(C)c3c2n1 | 11.8
O=C(CSc1nnc(-c2ccc(F)cc2)o1)N1CCN(Cc2ccc3c(c2)CCO3)CC1 | 14.4
O=C(c1ccc2c(c1)OCCO2)C1CCN(C(=O)c2ccc(-n3cccn3)cc2)CC1 | 10.4
O=C(c1cc(-c2cccnc2)nc2ccccc12)N1CCN(Cc2cccs2)CC1 | 16
C[C@@]1(C(=O)Nc2ccc(F)nc2)CCCN1c1nc(Nc2cc(C3CC3)n[nH]2)c2cccn2n1 [BMS-754807] | 10.2
CC1CCc2c(sc3nc(-c4cccnc4)nc(N4CCN(C(C(N)=O)c5ccccc5)CC4)c23)C1 (stereo not given) | 2.38
Cc1cc(C)c2c(n1)sc1c(N3CCN(Cc4ccccc4Cl)CC3)ncnc12 | 8.68
N#Cc1ccc(CN2CCN(C(=O)c3cn(Cc4ccccc4)nc3-c3cccnc3)CC2)cc1 | 15.4

---

Tested on: ABCB1 (P-gp)
measurement.notes: Therapeutic index, ratio of GI50 for human A2780/ADR cells to IC50 for ABCB1 in human A2780/ADR cells
Assay type: toxicity, cell-based
cond: read-out: TI
measurement.kind: selectivity ratio

CC1CCc2c(sc3nc(-c4cccnc4)nc(N4CCN(C(C(N)=O)c5ccccc5)CC4)c23)C1 (stereo unspecified) | 14.9
